Target Of Assay: Glucose-dependent insulinotropic receptor (Homo sapiens)
Sequence (Q8TDV5 whole entry): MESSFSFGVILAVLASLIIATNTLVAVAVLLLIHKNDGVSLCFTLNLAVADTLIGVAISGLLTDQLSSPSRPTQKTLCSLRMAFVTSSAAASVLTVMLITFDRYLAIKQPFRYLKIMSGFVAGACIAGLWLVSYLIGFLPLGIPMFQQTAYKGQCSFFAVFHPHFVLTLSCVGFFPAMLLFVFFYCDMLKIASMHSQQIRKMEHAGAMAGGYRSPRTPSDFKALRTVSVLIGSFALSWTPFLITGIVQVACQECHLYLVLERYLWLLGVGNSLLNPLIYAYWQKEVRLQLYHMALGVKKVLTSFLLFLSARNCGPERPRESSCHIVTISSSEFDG
Measurement Notes: Agonist activity at GPR119 expressed in CHO-K1 cells assessed as cAMP level after 1 hr by homogenous time-resolved fluorescence assay
Assay type: functional, cell-based
Measured Property: EC50 (µM)
Write it as a number; the unit µM goes unstated.

The reported value for `CC(C)(F)c1noc(C2CCN(c3ncnc(Nc4ccc(C(=O)O)cc4F)c3F)CC2)n1` in terms of EC50 is 100

Reference source: ChEMBL document CHEMBL2202963
